# System: SUP-B15
# Measurement Protocol: Antiproliferative activity against human SUP-B15 cells after 72 hrs by CelTiter-Glo assay
# Assay type: functional, cell-based
# Setup Conditions: SUP-B15, 72 h
Readout Type: EC50

Use these answered entries as a reference point.
Sample Smiles: COC(=O)c1cc(=O)c2cc(NC(=O)Nc3ccc4c(c3)CCC4)ccc2[nH]1
EC50: > 24.1 µM

Sample Smiles: COc1cc(OC)c2c(=O)cc(C(=O)Nc3ccccc3S(C)(=O)=O)[nH]c2c1
EC50: > 39.7 µM

Sample Smiles: COc1ccc(-c2cc(=O)c3c(OC)cc(OC)cc3n2S(=O)(=O)c2ccc(C=O)cc2)cc1
EC50: > 34.5 µM

Sample Smiles: COc1cc(OC)c2c(=O)cc(C(=O)Nc3cccc(N4CCCC4)c3)[nH]c2c1
EC50: > 58.6 µM

From here, focus on the item given below.
### Prompt Any idea what its EC50 is? The molecule is COc1ccc(-c2cc(=O)c3c(OC)cc(OC)cc3n2S(=O)(=O)c2ccc(F)cc2)cc1
### Response > 65.5 µM
